Data credit: patent US20100286145A1

system_name: memapsin 2 (Homo sapiens)
Sequence (P56817 46-501): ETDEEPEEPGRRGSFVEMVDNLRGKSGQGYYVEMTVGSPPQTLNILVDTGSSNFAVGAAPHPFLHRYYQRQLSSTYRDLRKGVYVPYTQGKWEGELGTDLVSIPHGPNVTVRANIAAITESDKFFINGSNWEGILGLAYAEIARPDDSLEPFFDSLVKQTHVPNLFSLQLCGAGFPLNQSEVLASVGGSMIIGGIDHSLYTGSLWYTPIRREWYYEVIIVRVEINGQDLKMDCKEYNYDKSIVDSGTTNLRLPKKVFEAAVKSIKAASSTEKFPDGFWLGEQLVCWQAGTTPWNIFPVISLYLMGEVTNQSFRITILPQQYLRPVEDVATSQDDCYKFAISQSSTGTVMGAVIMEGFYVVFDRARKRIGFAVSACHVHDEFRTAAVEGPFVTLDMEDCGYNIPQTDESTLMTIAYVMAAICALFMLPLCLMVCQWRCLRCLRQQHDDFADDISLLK
test_method_notes: Inhibition of memapsin 2 beta-secretase activity (fluorogenic substrate FS-2)
Type: biochemical
run_conditions: memapsin 2, pH 4, 37° C., 20 minutes pre-incubation; read-out: M2Ki
parameter: Ki

Req: Ki for Cc1cccc(CNC[C@@H](O)[C@H](Cc2ccccc2)NC(=O)c2cccc(C(=O)N(C)Cc3nc(C)cs3)c2)n1 [Compound 115] ?
Resp: > 0.501 µM

Req: What measured Ki goes with Cc1csc(CN(C)C(=O)c2cccc(C(=O)N[C@@H](Cc3ccccc3)[C@H](O)CNCc3cncc(C(C)(C)F)c3)c2)n1 [Compound 92] ?
Resp: < 0.3 µM

Req: Find the recorded Ki belonging to C=C(C)c1cncc(CNC[C@@H](O)[C@H](Cc2ccccc2)NC(=O)c2cccc(C(=O)N(C)Cc3nc(C)cs3)c2)c1 [Compound 22] and report it.
Resp: < 0.3 µM

Req: Recorded Ki of COc1cccc(CNC[C@@H](O)[C@H](Cc2ccccc2)NC(=O)c2cccc(C(=O)NCc3nccc(C)n3)c2)c1 [Compound 102] , please.
Resp: > 0.501 µM

Req: GET /values?readout=Ki&item= COc1cccc(CNC[C@@H](O)[C@H](Cc2ccccc2)NC(=O)c2cc(C(=O)N(C)Cc3nc(C)cs3)cc(-c3cccnc3)c2)c1 [Compound 189]
Resp: < 0.3 µM

Req: For the compound shown here, COc1cccc(CNC[C@@H](O)[C@H](Cc2ccccc2)NC(=O)c2cccc(C(=O)N(C)Cc3cccnc3)c2)c1 [Compound 55] , give the reported Ki.
Resp: > 0.501 µM

Req: Would you kindly share the measured Ki for COc1cccc(CNC[C@@H](O)[C@H](Cc2ccccc2)NC(=O)c2cccc(C(=O)N(C)Cc3ccccn3)c2)c1 [Compound 45] ?
Resp: > 0.501 µM

Req: I am curious: what Ki value has been reported for COc1cccc(CNC[C@@H](O)[C@H](Cc2ccccc2)NC(=O)c2cc(OS(C)(=O)=O)cc(C(=O)N(C)Cc3nc(C)cs3)c2)c1 [Compound 67] ?
Resp: < 0.3 µM

Req: Entry Cc1cc(C(=O)N[C@@H](Cc2ccccc2)[C@H](O)CNCc2cncc(C(C)C)c2)cc(C(=O)N(Cc2nc(C)cs2)C2CC2)c1 [Compound 41] : reported Ki = ?
Resp: < 0.3 µM

Req: What does the data say about its Ki? Entry: COc1cccc(NC[C@@H](O)[C@H](Cc2ccccc2)NC(=O)c2cccc(C(=O)N(C)Cc3nc(C)cs3)c2)c1 [Compound 166]
Resp: > 0.501 µM

Req: I would be grateful if you could share the reported Ki for COc1cccc(CNC[C@@H](O)[C@H](Cc2ccccc2)NC(=O)c2cc(C(=O)NCc3nc(C)cs3)cc(N3CCCC3)c2)c1 [Compound 187] .
Resp: < 0.3 µM

Req: Please give the measured Ki for this compound: Cc1csc([C@@H](C)N(C)C(=O)c2cccc(C(=O)N[C@@H](Cc3ccccc3)[C@H](O)CNCc3cncc(C(C)C)c3)c2)n1 [Compound 82]
Resp: < 0.3 µM

Req: State the recorded Ki for this entry: Cc1csc(CN(C)C(=O)c2cccc(C(=O)N[C@@H](Cc3ccccc3)[C@H](O)CNCc3cccc(C4CC4)c3)c2)n1 [Compound 12]
Resp: < 0.3 µM

Req: Bench note: what Ki did CNC(=O)c1cc(C(=O)N[C@@H](Cc2ccccc2)[C@H](O)CNCc2cccc(OC)c2)cc(C(=O)N(C)Cc2nc(C)cs2)c1 [Compound 98] show?
Resp: < 0.3 µM

Req: Please report the recorded Ki for Cc1csc(CN(C)C(=O)c2cccc(C(=O)N[C@@H](Cc3ccccc3)[C@@H](O)CNCc3cncc(C(C)C)c3)c2)n1 [Compound 147] .
Resp: > 0.501 µM

Req: Query (compound): Cc1csc(CN(C)C(=O)c2cccc(C(=O)N[C@@H](Cc3ccccc3)[C@H](O)CNCc3cccc(I)c3)c2)n1 [Compound 97] ; field requested: Ki
Resp: < 0.3 µM

Req: // lookup Ki for COc1cccc(CNC[C@@H](O)[C@H](Cc2ccccc2)NC(=O)c2cccc(C(=O)N(C)Cc3ncc(C)s3)c2)c1 [Compound 6]
Resp: > 0.501 µM

Req: Need Ki, item Cc1csc(CN(C)C(=O)c2cc(C(=O)N[C@@H](Cc3ccccc3)[C@H](O)CNCc3cncc(C(C)C)c3)cc(-c3ccccc3C#N)c2)n1 [Compound 154]
Resp: < 0.3 µM

Req: What value of measured Ki is listed for CC(=O)c1cccc(CNC[C@@H](O)[C@H](Cc2ccccc2)NC(=O)c2cc(C(=O)N[C@H](C)c3ccccc3)cc(N(C)S(C)(=O)=O)c2)c1 [Compound 126] ?
Resp: < 0.3 µM

Req: Can you share its Ki? I mean this compound: Cc1csc(CN(C)C(=O)c2cccc(C(=O)N[C@@H](Cc3ccccc3)[C@H](O)CNCc3cccc(C(F)F)c3)c2)n1 [Compound 143]
Resp: < 0.3 µM

Req: Item under review: COc1cccc(CNC[C@@H](O)[C@H](Cc2ccccc2)NC(=O)c2cccc(C(=O)N(C)c3nc(C)cs3)c2)c1 [Compound 84] . Reported Ki?
Resp: > 0.501 µM

Req: For the compound shown here, Cc1csc(CN(C)C(=O)c2cccc(C(=O)N[C@@H](Cc3ccccc3)[C@H](O)CNCc3cc(OC(=O)N(C)C)cc(C(C)C)c3)c2)n1 [Compound 198] , give the reported Ki.
Resp: < 0.3 µM

Req: Look at this compound and give its reported Ki. CCS(=O)(=O)c1cc(CNC[C@@H](O)[C@H](Cc2ccccc2)NC(=O)c2cccc(C(=O)N(C)Cc3nc(C)cs3)c2)cc(C(C)C)c1 [Compound 188]
Resp: < 0.3 µM

Req: Need Ki of Cc1csc(CN(C)C(=O)c2cccc(C(=O)N[C@@H](Cc3ccccc3)[C@H](O)CNCc3cc(O)cc(C(C)C)c3)c2)n1 [Compound 125] , thanks.
Resp: < 0.3 µM

Req: Dear colleague, I am looking for the recorded Ki of the following compound: COc1cccc([C@@H](C)NC[C@@H](O)[C@H](Cc2ccccc2)NC(=O)c2cc(C(=O)N[C@H](C)c3ccccc3)cc(N(C)S(C)(=O)=O)c2)c1 [Compound 201]
Resp: < 0.3 µM
